- target: D(1A) dopamine receptor (Homo sapiens)
- experiment: Antagonist of Human D 1 Dopamine Receptor: qHTS
- stated conditions: HEK293 TREx D1 cells, calcium flux, dopamine EC80; at 10 µM
Among all 360,000 compounds or so, about 11,000 (3.1%) were called active. Rule as the data show it: active = activity change below about -30%; inactive = the rest. What follows is part of a selection rich in actives, with near analogues and random picks from the rest.
Labels: active, inactive

{"columns": ["molecule", "qualitative label"],
 "data": [
  ["COc1cccc(CNS(=O)(=O)c2ccc3c(c2)N(C(C)=O)CCS3)c1", "inactive"],
  ["COc1cccc(C(=O)Nc2ccc(-c3cc(C(F)(F)F)nn3-c3ccccc3)cc2)c1", "inactive"],
  ["Cc1ccccc1NC(=O)c1cc2c([nH]c1=O)CC(C)(C)CC2=O", "inactive"],
  ["COc1ccccc1CNC(=O)C1CCN(S(=O)(=O)c2ccc3c(c2)CC(C)N3C(=O)C2CC2)CC1 (configuration not stated)", "inactive"],
  ["CCCCc1ccc(S(N)(=O)=O)cc1", "active"],
  ["O=C(CC(c1cccs1)N1Cc2ccccc2C1=O)Nc1ccc(F)cc1F (configuration not stated)", "inactive"],
  ["COc1ccc(N(C)S(=O)(=O)c2ccc3c(c2)CC(C)N3C(=O)C2CC2)c(OC)c1 (configuration not stated)", "active"],
  ["CCc1ccc(NC(=O)c2nn(-c3ccc(C)cc3)c(=O)n(C)c2=O)cc1", "inactive"],
  ["COc1cccc(C(=O)NC2CCN(C#N)CC2)c1", "inactive"],
  ["COc1ccc(Cl)cc1-n1c(CCC(=O)O)ccc1-c1ccc(C)cc1", "inactive"],
  ["O=C(/C=C/c1cccc([N+](=O)[O-])c1)NCCSCc1ccco1", "inactive"],
  ["Cc1ccc(CSc2nc3[nH]ncc3c(=O)[nH]2)cc1", "inactive"],
  ["Cc1ccc(-n2c(C)cc(/C=N/Nc3ccc([N+](=O)[O-])cn3)c2C)c(C)c1", "active"],
  ["Cc1ccccc1CNC(=O)c1ccc(NC(=O)N2CCCCc3ccccc32)cc1", "inactive"],
  ["COc1cc(OC)cc(C(=O)NCCSCc2ccco2)c1", "inactive"],
  ["Cc1ccc2nc(CNC(=O)c3ccccc3)[nH]c2c1", "inactive"],
  ["CS(=O)(=O)c1ccc(-c2nnc(NC(=O)c3ccc4c(c3)OCCO4)o2)cc1", "inactive"],
  ["O=C(CSc1nc2[nH]ncc2c(=O)[nH]1)Nc1ccc(F)cc1", "inactive"],
  ["CN(C)c1ccc(C=NCCc2ccc(S(N)(=O)=O)cc2)cc1", "inactive"],
  ["COc1cccc(CNS(=O)(=O)c2ccc3c(c2)CC(C)N3C(C)=O)c1 (configuration not stated)", "active"],
  ["Cc1ccc(N2CCN(c3ccc([N+](=O)[O-])cn3)CC2)c(C)c1", "inactive"],
  ["Cc1ccc(CNS(=O)(=O)c2ccc(-c3cc(C(F)(F)F)on3)s2)cc1", "inactive"]
]}
